REPORTED_PROPERTY: logP
// response body must contain only the number

c1ccc2c(c1)Cc1ccccc1-2 ... 4.18
COCc1ccccc1 ... 1.92
CCC(=O)OC1(C(=O)CBr)C(C)CC2C3CCC4=CC(=O)C=CC4(C)C3(F)C(=O)CC21C (stereo not given) ... 3.55

Identify the reported logP for the following entry. Nc1ccccc1Oc1ccccc1
2.46

Please give the documented logP of Nc1ccc(C(=O)Oc2cccc(C(F)(F)F)c2)c(O)c1
3.61

Supply reported logP belonging to this molecule: CCCCOCCOCCSC#N
1.68

Give logP for the following molecule: O=c1[nH]cc(F)c(=O)[nH]1
-0.89

Determine from records and report logP for CCN(CC)CCNC(=O)c1ccccc1
1.99

Item O=P(O)(O)c1ccccc1 : provide logP
0.54

Return logP (reported value) for this molecule: O[C@@H]1CCCC[C@H]1O
0.08

Name the recorded logP of the molecule listed here: CC(=O)OCC1OC(n2ccnc2[N+](=O)[O-])C(OC(C)=O)C(OC(C)=O)C1OC(C)=O (stereo not given)
0.52

* * *

logP by entry:
Please give the numeric answer without any surrounding text.

Give the reported value of logP for this record: CC12CCC3C(CCC4CC(=O)CCC43C)C1CCC2=O (stereo unspecified)
3.6

Assign logP to the following record: CN(C)CCC(c1ccc(Cl)cc1)c1ccccn1 (stereo unspecified)
3.38

State its logP: CC(=O)Nc1ccc2c(c1)[nH]c1ccccc12
3.02

Input O=CNC(=O)C1CCC1 , output reported logP.
-0.7

Give the reported logP for this compound. CCCCCCCCOc1ccc(NC(=O)OCCN2CCCCC2)cc1
6.44

Retrieve logP measured for CCCCC(CC)CN (stereo unspecified) and print it.
2.82

State its logP for this compound: C=CCNCC
0.81

Report logP, nothing else, for this compound: CC(C)CCOC(=O)c1cc(O)c(O)c(O)c1
2.8

State its logP: O=C(O)c1ccc2c(c1)OCCOCCOCCOCCOCCO2
-0.28

Report logP for O=C(CCCN1CCC(n2c(=O)[nH]c3ccccc32)CC1)c1ccc(F)cc1
3.91

Find the measured logP of O=C1CC(=O)NC(=O)N1 and report it.
-1.47

Please look at this compound and report its logP: CCC(c1ccccc1)c1c(O)c2ccccc2oc1=O (stereo unspecified)
3.62

Identify logP associated with the compound CCCC(=NOCC)C1C(=O)CC2(CC(C)CC(C)C2)OC1=O (stereo unspecified)
4.48

Answer with the recorded logP for the compound listed here: C(=Nc1ccccc1)c1ccccc1
2.82

Indicate its recorded logP; the compound in question is CN1CC[C@]23c4c5ccc(O)c4O[C@H]2C(=O)CC[C@@]3(O)[C@H]1C5
0.83

# return recorded logP for input CC1OC(C)OC(C)O1 (stereo unspecified)
0.67

Check the records and state logP for CN1CCOCC1
-0.33

State, in one line, measured logP of CNc1nc(NC(C)C)nc(SC(F)F)n1
3.27

* * *

REPORTED_PROPERTY: logP
I'd appreciate a reply containing only the number, no unit.

Oc1ccc(Cl)c2ccccc12 ... 3.94
OCC=CCO ... -0.81
CC(=O)C=Cc1ccco1 ... 1.35
c1ccc(-c2cnc(-c3ccccc3)o2)cc1 ... 4.67

Supply reported logP belonging to this compound: NC(Cc1ccc(O)c(O)c1)C(=O)OCc1cccc(C(F)(F)F)c1 (centres undefined)
2.29

Give logP for Cc1cccc2sc3nncn3c12
1.7

Tell me logP reported for O=Nc1ccc2ccccc2c1O
2.46

Using known records, supply logP for Nc1ccc(C(=O)Oc2ccccc2Cl)c(O)c1
3.72

Specify logP for CNC(=O)Oc1ccccc1OC(C)C and stop.
1.52

* * *

Below, each entry is listed with its recorded logP.
Peptide text beside a SMILES is read from it.

Look over these answered cases.
CCCCCC=O ... 1.78
COc1cc(CC(C)N)cc(OC)c1Br (stereo not given) ... 2.44
CC(=O)N[C@@H](Cc1c[nH]c2ccccc12)C(=O)N[C@@H](C)C(=O)N[C@H](C(N)=O)C(C)C (Ac-Trp-Ala-Val-NH2) ... 0.36
COC(=O)c1cccc(S(I)=C(N(C)C)N(C)C)c1 (stereo not given) ... -0.75

Note: attention shifts to another entry.
Output logP of Nc1ccc(C(=O)O)c(Cl)c1
1.33

* * *

Each item that follows carries a reported logP.
Simply state the number, no unit and no words.

Some compounds with known logP results, for comparison:
Cc1ccc([N+](=O)[O-])cn1 ... 0.99
NC(=O)c1cnc2ccccc2n1 ... 0.98

Give the reported logP for this compound. COC(=O)CNC(=O)c1ccc([N+](=O)[O-])cc1
0.98

* * *

T means recorded logP is 2 or above; F means it is below 2.

Oc1cccc(O)c1 ... F
COC(=O)COc1ccccc1C ... T
CCOP(=S)(OCC)Oc1cc(C)nc(C(C)C)n1 ... T
NC[C@H](O)c1ccc(O)c(O)c1 ... F
CNC(=O)Oc1cccc(C(C)(C)C)c1 ... T
Cc1[nH]c(=O)n(C(C)(C)C)c(=O)c1Cl ... F
Cc1ccc(Cl)cc1C ... T
CCCCCC1(CC)C(=O)NC(=O)NC1=O ... T
Oc1c(Cl)cc(Cl)c(Cl)c1Cl ... T
Nc1ccccc1C(F)(F)F ... T

Does CC(=O)Nc1ccc(O)c(C)c1C have a reported logP of at least 2?
F

Decide: is the reported value of logP for CCOC(=O)C(=Cc1cccc(C)c1)C(=O)OCC equal to or greater than 2?
T

API: above_or_equal(metric=logP, cutoff=2) for item Oc1c(Cl)ccc(Cl)c1Cl
T

Given CNC(=O)Oc1cccc(OC)c1 , state whether its logP is at least 2.
F

Check the entry CCCCNCCC : does logP equal or exceed 2?
T

Assess whether reported logP for OC(c1ccccc1)c1ccccn1 (stereo not given) sits at 2 or higher.
F

* * *

Returns the class for an entry based on its logP. Class ranges: low (below 1), moderate (1 to below 3), high (3 or more)

CC1(C)SC2C(NC(=O)C(C(=O)Oc3ccccc3)c3ccccc3)C(=O)N2C1C(=O)O (configuration not stated) ... high
CCSc1ccc2c(c1)N(CCCN1CCN(C)CC1)c1ccccc1S2 ... high
OCCBr ... low
COc1cc(SC)c(OC)cc1CC(C)N (configuration not stated) ... moderate
CON(C)C(=O)Nc1ccc2c(c1)Cc1ccccc1-2 ... high
CC(C)C(O)C(C(=O)O)c1ccc(-c2ccccc2)cc1 (configuration not stated) ... high

Quick check: band for COc1ccc(O)c2nccc(C)c12
moderate

Place this compound in its band: O=CNc1ccc([N+](=O)[O-])cc1
moderate

Into which category would you place Cc1cc(O)ccc1Cl ?
high

Band assignment needed for CN(C)CC(F)(F)F please.
moderate

Determine which band this compound sits in: Cc1ncc([N+](=O)[O-])n1CCNC(=O)OC(C)C
low

Category lookup for the compound N#CNC(=N)N
low

* * *

The reader will find reported logP values listed item by item below.
Simply state the number, no unit and no words.

# count of solved cases: 5
CC(=O)Nc1cccc(OCc2cccc(NC(=N)NC(=N)N)c2)c1 ... 1.82
CNS(=O)(=O)c1ccccc1 ... 0.92
NC(=O)Nc1cccc(Br)c1 ... 2.08
O=C1NC(=O)C(c2ccccc2)(c2ccc(O)cc2)N1 (stereo unspecified) ... 1.7
N#Cc1sc2c(=O)c3ccccc3c(=O)c=2sc1C#N ... 2.84

Look up and report measured logP for this entry: COC(=O)CCCCC(=O)OC
1.03

Given NCCc1ccccn1 , respond with its logP.
0.08

Indicate the recorded logP value for this compound: COc1ccc(NC(=O)NN=Cc2ccc[nH]2)cc1
2.67

Give logP for the following compound: CCOC(=O)Cc1ccccc1
2.28

* * *

REPORTED_PROPERTY: logP

Look over these answered cases.
COc1ccc(CC#N)cc1 ... 1.7
CCN(CC)CCNC(=O)c1cc([N+](=O)[O-])c(N)cc1OC ... 2.11

Now for the compound whose logP we want.
Please report the measured logP for C[C@]12CC[C@H](O)C[C@H]1CC[C@@H]1[C@@H]2C[C@@H](O)[C@]2(C)[C@@H](C3=CC(=O)OC3)CC[C@]12O
1.1

* * *

Measured logP accompanies every entry in the list below.
Answer with a bare number; do not write a unit.

Study these solved cases before continuing.
NNC(=O)c1ccc(Cl)cc1 ... 1.18
O=CNc1cccc2cccnc12 ... 1.8
CC=C(C)C1(C)CC(=O)C(C(CCC)=NOCC)C(=O)O1 (centres undefined) ... 3.4

Next compound, please.
Indicate its recorded logP; the compound in question is O=C(O)C(c1ccccc1)n1cccc1 (centres undefined)
1.57

* * *

REPORTED_PROPERTY: logP
Write the number on its own, no unit after it.

Please look at this molecule and report its logP: COc1cc(S(C)=O)ccc1-c1nc2nccnc2[nH]1 (stereo not drawn)
0.66

// fetch logP given entry CC(=O)C(=Cc1ccc(Cl)cc1)C(C)=O
2.32

Identify measured logP associated with CCC1(C2=CCCCC2)C(=O)NC(=O)NC1=O
1.77
